subject of test: GNA13
cond: ASO; note: test concentration or dose not given here
These antisense oligonucleotides have a phosphorothioate backbone; sugars and methylation of C are not fully specified.
Entries are sorted into classes by remaining target (mRNA or protein) (fraction of control) as follows: A (below 0.3), B (0.3 to below 0.6), C (0.6 or more)

seq string: TGCTCGGCCTCGCCACTC
subject of test: GNA13
class name: B
--
seq string: CACACGGACAGCACGGAC
subject of test: GNA13
class name: C
--
seq string: TTGTACATCACTGTAGCA
subject of test: GNA13
class name: B
--
seq string: AAAGTCGTATTCATGGAT
subject of test: GNA13
class name: C
--
seq string: TCACGTTGCTGTAGATGG
subject of test: GNA13
class name: C
--
seq string: TAAGGGCTTCTGTTGCTG
subject of test: GNA13
class name: B
--
seq string: GACCGCGACGGCAGGAAG
subject of test: GNA13
class name: C
--
seq string: AATATTTTACAGATTCAC
subject of test: GNA13
class name: C
--
seq string: GAGCATCAACCAGCACCC
subject of test: GNA13
class name: A
--
seq string: GCAAGCAGAATATCTTGT
subject of test: GNA13
class name: B
--
seq string: AAAAGATATTAAAACAGC
subject of test: GNA13
class name: C
--
seq string: GCCTCGCCACTCGTCAGC
subject of test: GNA13
class name: B
--
seq string: CAGCTTTCAGCCACAAAC
subject of test: GNA13
class name: C
--
seq string: CGTAGAATTAAGATTGTT
subject of test: GNA13
class name: C
--
seq string: TCGCCCGCGCCCAGCAGC
subject of test: GNA13
class name: B
--
seq string: TCACCAGCCGCTTCACAT
subject of test: GNA13
class name: A
--
seq string: GAAAACCCTTGTTTCCAC
subject of test: GNA13
class name: B
--
seq string: TATTGATGTCACACTGTC
subject of test: GNA13
class name: B
--
seq string: CATCTGCTTCAGGAAGGT
subject of test: GNA13
class name: B
--
seq string: CGATTGGTCAGTCGATCT
subject of test: GNA13
class name: C
--
seq string: TATCCTTCACGTCGCGGA
subject of test: GNA13
class name: C
--
seq string: TCGAAGTCCTGCCCGTGG
subject of test: GNA13
class name: C
--
seq string: CCTTGTTTCCACCATTCC
subject of test: GNA13
class name: A
--
seq string: AACAGATCAAAGCCTGCA
subject of test: GNA13
class name: C
--
seq string: GCCCGGGTATCAAACGAC
subject of test: GNA13
class name: A
--
seq string: AATTCTGGTTGTAAACTG
subject of test: GNA13
class name: C
--
seq string: ATATTGTAAGAAAACCCT
subject of test: GNA13
class name: C
--
seq string: AAGCAAGTCTGTCTTGTT
subject of test: GNA13
class name: C
--
seq string: TTGTTGGTTTGAGTTGTC
subject of test: GNA13
class name: C
--
seq string: TATCCAAGTTATCCAGGA
subject of test: GNA13
class name: B
--
seq string: ACCCTCATACCTTTGATC
subject of test: GNA13
class name: A
--
seq string: ACGACATCATCTTATCTC
subject of test: GNA13
class name: B
--
seq string: GACAGGCATTTGTCGATC
subject of test: GNA13
class name: C
--
seq string: CGGTCATAGGCATTCTGT
subject of test: GNA13
class name: C
--
seq string: CGGACCGCGACGGCAGGA
subject of test: GNA13
class name: B
--
seq string: AGTCCGCCATCTTGCCGC
subject of test: GNA13
class name: C
--
seq string: AGCAGCAGGATCTTCACC
subject of test: GNA13
class name: B
--
seq string: CCCGTGGATGATCCGCAT
subject of test: GNA13
class name: C
--
seq string: TCTGACCACCTACATCAA
subject of test: GNA13
class name: A
--
seq string: CGCCTCGCCGCCTCTCCG
subject of test: GNA13
class name: C
--
seq string: CAAATCTTGGCGATGAGT
subject of test: GNA13
class name: B
--
seq string: AAGGTGGACTTGCCGCTC
subject of test: GNA13
class name: A
--
seq string: CGTTTGTTCCGGAAACAT
subject of test: GNA13
class name: C
--
seq string: TGCCTTTGGTGGGTCTTC
subject of test: GNA13
class name: B
--
seq string: GTCGATCTCCTTGGACTT
subject of test: GNA13
class name: C
--
seq string: GGATCCCCTTCAAATTCT
subject of test: GNA13
class name: C
--
seq string: CACTTGAGGAAACAAGGA
subject of test: GNA13
class name: B
--
seq string: TCTGGTTCTCCAAGTTTA
subject of test: GNA13
class name: A
--
seq string: CGCGCCCAGCAGCAGGAT
subject of test: GNA13
class name: C
--
seq string: GCCGCCGCCGCCGCCTCG
subject of test: GNA13
class name: C
--
seq string: AAGCATTTTGAAAGGAAC
subject of test: GNA13
class name: C
--
seq string: TTGAGGTTGTCATGCAGA
subject of test: GNA13
class name: C
--
seq string: CGAGACAGGCATTTGTCG
subject of test: GNA13
class name: C
--
seq string: TCGAAACATTCAAACCAA
subject of test: GNA13
class name: B
--
seq string: CTTGCGTTGCTGCTCGGC
subject of test: GNA13
class name: B
--
seq string: CATAGGTCTTTTCCCGAG
subject of test: GNA13
class name: B
--
seq string: CCGCTGTCTGCCCATAAT
subject of test: GNA13
class name: A
--
seq string: AGCACACGGACAGCACGG
subject of test: GNA13
class name: B
--
seq string: AGAACAGAATTATGGAGA
subject of test: GNA13
class name: B
--
seq string: CCGCCGCCTCGCCGCCTC
subject of test: GNA13
class name: B
--
seq string: GTTGTGATGGAATATAAT
subject of test: GNA13
class name: C
--
seq string: GATCTCCTTGGACTTGCG
subject of test: GNA13
class name: B
--
seq string: GCTGAAAACCCGGTTATT
subject of test: GNA13
class name: C
--
seq string: ATATGAAGCTTCTCTCGA
subject of test: GNA13
class name: B
--
seq string: CTCCATGTTGTTGGTTTG
subject of test: GNA13
class name: B
--
seq string: CATCTTGCCGCCGCCGCC
subject of test: GNA13
class name: C
--
seq string: TCTTATAGCAGGAAGATA
subject of test: GNA13
class name: C
--
seq string: CAATTTGCACCTTCTCCT
subject of test: GNA13
class name: A
--
seq string: CTTTTCCCGAGACAGGCA
subject of test: GNA13
class name: A

* * *

subject of test: MAP2K4
cond: ASO
These antisense oligonucleotides have a phosphorothioate backbone; sugars and methylation of C are not fully specified.
Label MET when remaining target (mRNA or protein) (fraction of control) is strictly below 0.6; at or above that, label NOT MET.

seq string: ATATTTCCACTTCTGTCCAG
class name: NOT MET
//
seq string: CACACAATAGAACGGTCAGA
class name: NOT MET
//
seq string: AAATTTGGCTGAGCACATCG
class name: MET
//
seq string: ACCACTCACAGTGCTGCTTC
class name: NOT MET
//
seq string: GGCTCGGAGCCGCCATTGTT
class name: MET
//
seq string: CAGTCTCTCTATGTGTGGGT
class name: NOT MET
//
seq string: CAACTTCAGTGCTTTGCGTT
class name: MET
//
seq string: AACACCAATCTTATTGCACA
class name: NOT MET
//
seq string: GGAGCCGCCATTGTTGGGAG
class name: NOT MET
//
seq string: GAAATATATAGCTGCTACAA
class name: NOT MET
//
seq string: AATCGACATACATGGGAGAG
class name: MET
//
seq string: TAGAGTCTGATGTAGCAGCG
class name: NOT MET
//
seq string: GCTCGGGCTCGGAGCCGCCA
class name: MET
//
seq string: GTCTGATGTAGCAGCGATAT
class name: MET

* * *

subject of test: VCAM1
cond: ASO
These antisense oligonucleotides have a phosphorothioate backbone; sugars and methylation of C are not fully specified.
quantity kind: remaining target (mRNA or protein) (fraction of control)

seq string: GCAATCTTGCTATGGCATAA
numeric readout: 0.48
//
seq string: CGTGATGAAGAAAATAGTGGTT
numeric readout: 0.49
//
seq string: CACGAGGCCACCACTCATCTC
numeric readout: 0.05
//
seq string: CCTGTGTGTGCCTGGGAGGG
numeric readout: 0.88
//
seq string: TTTGTGTCCCACCTG
numeric readout: 0.1
//
seq string: TTTAAGCAATCTTGCTATGGC
numeric readout: 0.81
//
seq string: GGTATTCAGCTCCTGAAG
numeric readout: 0.69
//
seq string: CTTTGACTTCTTGCTCACAGC
numeric readout: 0.07
//
seq string: CTGTGTGTCCTGTCTCCGCT
numeric readout: 0.27
//
seq string: CCCTTATTTGTGTCCC
numeric readout: 0.37
//
seq string: CCCAGGCATTTTAAGTTGCTG
numeric readout: 0.33
//
seq string: CCTGAAGCCAGTGAGGCCCG
numeric readout: 0.42
//
seq string: CAGCCTGCCTTACTGTGGGC
numeric readout: 0.67
//
seq string: CCTGGGAGGGTATTC
numeric readout: 0.39
//
seq string: GCCTGGGAGGGTATTCAGCTC
numeric readout: 0.3
//
seq string: GCCAGTGAGGCCCG
numeric readout: 0.35
